target: UniProtKB P21453; assay: Inhibition of cAMP production (HTRF cAMP HiRange), S1P1 CHO-K1 cells; format: cell-based; settings: inhibition of cAMP production, S1P1 CHO-K1 cells
Sequence (P21453 whole entry, looked up): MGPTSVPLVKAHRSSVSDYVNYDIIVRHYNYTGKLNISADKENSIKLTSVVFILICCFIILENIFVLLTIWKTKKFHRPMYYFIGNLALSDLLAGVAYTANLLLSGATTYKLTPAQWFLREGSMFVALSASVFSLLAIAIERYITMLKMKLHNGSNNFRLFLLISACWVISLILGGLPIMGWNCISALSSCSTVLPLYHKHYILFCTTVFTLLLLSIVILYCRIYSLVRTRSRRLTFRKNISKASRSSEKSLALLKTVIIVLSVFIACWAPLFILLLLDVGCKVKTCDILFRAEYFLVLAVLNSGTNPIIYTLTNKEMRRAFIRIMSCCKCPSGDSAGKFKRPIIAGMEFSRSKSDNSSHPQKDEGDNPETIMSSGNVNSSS
Each item that follows carries a reported hS1P1 cAMP pEC50.
measureName: hS1P1 cAMP pEC50

compound | measureName | valueReported
CCCn1nnc2cc(-c3nc(-c4ccccc4)no3)ccc21 [Compound 160] | hS1P1 cAMP pEC50 | <6.5
CC(C)Cn1nnc2cc(-c3nc4ccncc4o3)ccc21 [Compound 504] | hS1P1 cAMP pEC50 | <6.5
CC(C)Nc1ccc(-c2nnc(-c3ccc4[nH]cnc4c3)o2)cc1C#N [Compound 356] | hS1P1 cAMP pEC50 | >6.5
CC(C)Oc1ccc(-c2ncc(-c3ccc4c(c3)nnn4C(C)C)cn2)cc1C#N [Compound 595] | hS1P1 cAMP pEC50 | >6.5
CCC1(CC)CC(=O)c2cc(-c3nc(-c4ccnc(F)c4)no3)ccc2O1 [Compound 146] | hS1P1 cAMP pEC50 | >6.5
CN1C(=O)CCc2cc(-c3nc(-c4cccnc4)no3)ccc21 [Compound 384] | hS1P1 cAMP pEC50 | <6.5
N#Cc1cc(-c2nnc(-c3ccc4c(c3)ncn4CCO)o2)ccc1NCC(F)F [Compound 578] | hS1P1 cAMP pEC50 | <6.5
Cn1ccnc1-c1noc(-c2ccc3c(c2)nnn3CC(C)(C)O)n1 [Compound 567] | hS1P1 cAMP pEC50 | <6.5
CC(C)n1nnc2cc(-c3nc(-c4ccc(OCc5ccccc5)cc4)no3)ccc21 [Compound 53] | hS1P1 cAMP pEC50 | <6.5
Cc1ccccc1-c1noc(-c2ccc3c(c2)nnn3CC(C)(C)O)n1 [Compound 139] | hS1P1 cAMP pEC50 | >6.5
Cc1ccsc1-c1noc(-c2ccc3c(c2)nnn3C2CCCC2)n1 [Compound 46] | hS1P1 cAMP pEC50 | >6.5
Cc1ccncc1-c1nc(-c2ccc3c(c2)nnn3CC(C)(C)CO)no1 [Compound 541] | hS1P1 cAMP pEC50 | <6.5
CCC1(CC)CC(=O)c2cc(-c3nc(-c4cncc(OC)c4)no3)ccc2O1 [Compound 311] | hS1P1 cAMP pEC50 | <6.5
Cc1ccc(-c2nc(-c3ccc4c(c3)nnn4C(C)C)no2)s1 [Compound 74] | hS1P1 cAMP pEC50 | <6.5
CC(F)(F)CNc1ccc(-c2nc(-c3ccc4c(c3)CCC(=O)N4)no2)cc1C#N [Compound 347] | hS1P1 cAMP pEC50 | >6.5
CCC1(CC)CC(=O)c2cc(-c3nc(-c4ccsc4)no3)ccc2O1 [Compound 468] | hS1P1 cAMP pEC50 | >6.5
C=C(F)CNc1ccc(-c2nc(-c3ccc4c(c3)CCC(=O)N4)no2)cc1C#N [Compound 346] | hS1P1 cAMP pEC50 | >6.5
N#Cc1cc(-c2nc(-c3ccc4c(c3)CCC(=O)N4)no2)ccc1NCC1CC1 [Compound 302] | hS1P1 cAMP pEC50 | >6.5
